meta.source: patent US20240409557A1

Target: human recombinant 15-PGDH (Homo sapiens, UniProt P15428)
Sequence (P15428 1-266): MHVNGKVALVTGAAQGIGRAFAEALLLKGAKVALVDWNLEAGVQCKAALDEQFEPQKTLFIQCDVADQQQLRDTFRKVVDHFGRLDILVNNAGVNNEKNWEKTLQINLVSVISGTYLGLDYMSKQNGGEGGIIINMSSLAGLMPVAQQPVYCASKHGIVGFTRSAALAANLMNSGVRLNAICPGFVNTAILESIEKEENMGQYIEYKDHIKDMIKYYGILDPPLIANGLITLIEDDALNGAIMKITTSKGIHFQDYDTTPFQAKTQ
Assay: Recombinant 15-PGDH enzymatic inhibition assay (PGDH-Lumi, NADH signal)
Details: recombinant 15-PGDH; 15 min pre-incubation, 60 min reaction with PGE2 and NAD+, NADH signal
Response field label: string, one of MET (IC50 strictly below 9 nM) or NOT MET.

// known answers, use as guide
molecule	classification
C[C@H](O)c1cc2c(C3CC3)cc(-c3cnc4nn(C)cc4c3)nc2s1 (single isomer, unassigned) [Compound B11S]	NOT MET
Nc1c(C(O)C2CC(F)(F)C2)sc2nc(-c3cncnc3)ccc12 (centres unmarked) [Compound B71]	MET
Cn1cc2cc(-c3ccc4nc([C@H](O)C5CC(F)(F)C5)sc4n3)cnc2n1 (single isomer, unassigned) [Compound B72R]	MET
Cn1cc2cc(-c3ccc4cc(C5(O)CCOC5)sc4n3)cnc2n1 (centres unmarked) [Compound C20]	NOT MET

Ask: Hello, I'm reviewing records and need to know if IC50 of Cn1cc2cc(-c3ccc4cc(C5(O)CC(C)(C)C5)sc4n3)cnc2n1 [Compound C26] is below 9 nM. Could you check?
Reply: MET

Ask: What do we get for CC(O)c1cc2c(-c3cnc4nn(C)cc4c3)cc(-c3ccnn3C)nc2s1 (centres unmarked) [Compound B5] ?
Reply: NOT MET

Ask: What do we get for CO[C@]1(C)C[C@@](O)(c2cc3cnc(-c4cnc5c(c4)nnn5C)nc3s2)C1 (single isomer, unassigned) [Compound C121C] ?
Reply: NOT MET

Ask: What do we get for Cn1cc2cc(-c3ccc4cc([C@]5(O)C[C@@H](C(F)F)C5)ccc4n3)cnc2n1 [Compound D6C] ?
Reply: NOT MET

Ask: What do we get for COCc1cc2c(C3CCC3)cc(-c3cnc4nn(C)cc4c3)nc2s1 [Compound A3] ?
Reply: NOT MET

Ask: What do we get for CC(O)c1cc2c(-c3cnc4nn(C)cc4c3)cc(C3CC3)nc2s1 (centres unmarked) [Compound B12] ?
Reply: NOT MET

Ask: What do we get for Cn1nnc2cc(-c3ccc4ccc([C@@H](O)C5CCOCC5)cc4n3)cnc21 (single isomer, unassigned) [Compound D3S] ?
Reply: NOT MET

Ask: What do we get for Cc1c2cnc(-c3cnc4nn(C)cc4c3)nc2sc1[C@]1(O)C[C@@H](C(F)F)C1 [Compound C90C] ?
Reply: NOT MET

Ask: What do we get for Cn1cc2cc(-c3cc(-c4ccnn4C)c4cc(C(O)(C5CCC5)C(F)(F)F)sc4n3)cnc2n1 (centres unmarked) [Compound C24] ?
Reply: NOT MET

Ask: What do we get for [2H][C@](O)(c1cc2ccc(-c3cnc4nn(C)cc4c3)nc2s1)C1CCOCC1 (single isomer, unassigned) [Compound B66R] ?
Reply: MET

Ask: What do we get for C[C@H](O)c1cc2c(-c3ccnn3C)cc(-c3cnc4nn(C)cc4c3)nc2s1 (single isomer, unassigned) [Compound B6S] ?
Reply: NOT MET

Ask: What do we get for Cn1cc2cc(-c3ccc4cc([C@H](O)C56CC(C5)C6)sc4n3)cnc2n1 (single isomer, unassigned) [Compound B87R] ?
Reply: MET

Ask: What do we get for CC[C@@H](O)c1cc2c(C3CC3)cc(-c3cnc4nn(C)cc4c3)nc2s1 (single isomer, unassigned) [Compound B13R] ?
Reply: MET

Ask: What do we get for O[C@@H](c1cc2ccc(-c3cnc4[nH]nnc4c3)nc2s1)C1CCOCC1 (single isomer, unassigned) [Compound B44R] ?
Reply: MET

Ask: What do we get for Cn1cc2cc(-c3ccc4sc([C@@H](O)C5CC(F)(F)C5)nc4n3)cnc2n1 (single isomer, unassigned) [Compound B74S] ?
Reply: NOT MET

Ask: What do we get for Cn1cc2cc(-c3ccc4cc(C(C)(C)O)sc4n3)cnc2n1 [Compound C9] ?
Reply: NOT MET

Ask: What do we get for Cn1cc2cc(-c3ccc4cc(C5(O)CCCC5)sc4n3)cnc2n1 [Compound C19] ?
Reply: NOT MET

Ask: What do we get for Cn1nnc2cc(-c3ccc4cc([C@H](O)C5CCOCC5)sc4n3)cnc21 (single isomer, unassigned) [Compound B41R] ?
Reply: MET

Ask: What do we get for Cn1nnc2cc(-c3ncc4cc([C@]5(O)C[C@@](C)(C#N)C5)sc4n3)cnc21 (single isomer, unassigned) [Compound C98C] ?
Reply: MET

Ask: What do we get for Cn1cc2cc(-c3ccc4cc([C@]5(O)C[C@@]6(CC6(F)F)C5)sc4n3)cnc2n1 (single isomer, unassigned) [Compound C88T] ?
Reply: MET

Ask: What do we get for Cn1cc2cc(-c3ccc4cc(C5(O)CC6(COC6)C5)sc4n3)cnc2n1 [Compound C28] ?
Reply: MET

Ask: What do we get for CNc1ncc(-c2ccc3cc(C4(O)CC(F)(F)C4)sc3n2)cn1 [Compound C43] ?
Reply: MET

Ask: What do we get for Cn1cc2cc(-c3ccc4cc([C@@H](O)C5CC5)sc4n3)cnc2n1 (single isomer, unassigned) [Compound B16S] ?
Reply: NOT MET

Ask: What do we get for Cc1c(C2(O)CC(F)(F)C2)sc2nc(-c3cnc4nn(C)cc4c3)ccc12 [Compound C77] ?
Reply: MET

Ask: What do we get for Cn1cc2cc(-c3ccc4cc(C5(O)CC6(CCCCC6)C5)sc4n3)cnc2n1 [Compound C52] ?
Reply: MET
